- target.of.assay: T1, Germicidin synthase (Gcs) R280A (Streptomyces coelicolor, UniProt Q9K464 1-389, R280A)
- T1 sequence (looked up): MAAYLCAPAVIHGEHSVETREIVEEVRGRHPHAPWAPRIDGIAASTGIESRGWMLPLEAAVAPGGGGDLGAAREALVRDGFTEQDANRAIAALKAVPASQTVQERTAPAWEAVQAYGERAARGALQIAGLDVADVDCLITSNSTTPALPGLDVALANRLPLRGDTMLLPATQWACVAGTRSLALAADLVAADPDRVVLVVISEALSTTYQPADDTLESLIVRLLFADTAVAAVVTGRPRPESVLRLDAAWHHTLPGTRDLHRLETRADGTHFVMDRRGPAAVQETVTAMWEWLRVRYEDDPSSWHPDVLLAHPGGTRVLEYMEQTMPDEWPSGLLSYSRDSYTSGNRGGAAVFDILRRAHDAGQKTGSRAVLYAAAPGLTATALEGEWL
- assay.summary: BLI
quantity.name: pKd
The quantity pKd is defined as the negative base-10 logarithm of the molar concentration.

Query: Which measured pKd value corresponds to Acyl carrier protein AcpP (Sco2389), biotinylated (natural protein, Streptomyces coelicolor, UniProt P72393 1-82, looked up, biotin (EZ-Link NHS-LC-LC-biotin, 5:1 molar ratio of biotin to protein)) MAATQEEIVAGLAEIVNEIAGIPVEDVKLDKSFTDDLDVDSLSMVEVVVAAEERFDVKIPDDDVKNLKTVGDATKYILDHQA ?
Reply: 6.74
